Assignment: determine reported IC50 for the given molecules.
# targetUnderTest: G1 APOL1 (Homo sapiens, UniProt O14791, I384M/S342G)
# Construct: expressed in transfected cells
# Sequence (O14791 28-398 S342G/I384M): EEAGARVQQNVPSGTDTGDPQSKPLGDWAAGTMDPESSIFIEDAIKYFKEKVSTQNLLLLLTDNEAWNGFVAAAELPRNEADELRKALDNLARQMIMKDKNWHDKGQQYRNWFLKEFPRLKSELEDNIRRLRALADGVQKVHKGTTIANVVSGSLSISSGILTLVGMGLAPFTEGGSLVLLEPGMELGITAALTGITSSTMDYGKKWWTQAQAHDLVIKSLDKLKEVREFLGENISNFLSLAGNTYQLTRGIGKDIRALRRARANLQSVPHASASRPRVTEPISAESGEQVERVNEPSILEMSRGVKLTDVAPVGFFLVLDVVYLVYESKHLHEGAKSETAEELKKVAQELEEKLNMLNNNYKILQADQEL
# procedureText: Acute APOL1 Thallium Assay with Inducible Stable Clones of HEK 293 Cells
# Type: cell-based
# experimentalParameters: HEK 293 inducible stable clones, G1 APOL1; read-out: Thallium Assay (IC50)

The recorded IC50 for C=CC(=O)NCCc1c(-c2ccc(F)cc2)[nH]c2c(F)cc(F)cc12 [Compound 417] is > 1000 nM

The recorded IC50 for CC(C#N)(CO)NC(=O)CCc1c(-c2ccc(F)cc2)[nH]c2ccc(F)cc12 (racemic) [Compound 33] is > 1000 nM

The recorded IC50 for O=C(CCc1c(-c2ccc(F)cc2)[nH]c2c(F)cc(F)cc12)Nc1cccnc1 [Compound 174] is > 1000 nM

The recorded IC50 for O=S(=O)(CCO)NCCc1c(-c2ccc(F)cc2)[nH]c2c(F)cc(F)cc12 [Compound 422] is > 1000 nM

The recorded IC50 for O=C(NCCc1c(-c2ccc(F)cc2)[nH]c2c(F)cc(F)cc12)NCC1CCCOC1 (centres unmarked) [Compound 293] is > 1000 nM

The recorded IC50 for CC(CO)NC(=O)OCCc1c(-c2ccc(F)cc2)[nH]c2c(F)cc(F)cc12 (racemic) [Compound 439] is < 250 nM

The recorded IC50 for NCC(=O)NCCc1c(-c2ccc(F)cc2)[nH]c2c(F)cc(F)cc12 [Compound 366] is 250 to 1000 nM

The recorded IC50 for O=C(CCc1c(-c2ccc(F)cc2)[nH]c2c(F)cc(F)cc12)Nc1ncco1 [Compound 162] is > 1000 nM
